IC50 by entry:
# Test system: SK-MEL-28
# measurementNotes: Antiproliferative activity against human SK-MEL-28 cells expressing B-Raf V600E mutant incubated for 68 hrs by MTT assay
# Type: functional, cell-based
# testContext: SK-MEL-28, 68 h
Write it as a number; the unit nM goes unstated.

Below are worked cases with known answers.
- entrySmiles: "CCCS(=O)(=O)Nc1ccc(F)c(C(=O)c2c[nH]c3ncc(-c4ccc(Cl)cc4)cc23)c1F"
  IC50 [nM]: 381
- entrySmiles: "O=S(=O)(Nc1ccc(F)c(C#Cc2cnc3[nH]nc(-c4ccc(F)cc4)c3c2)c1F)c1cccnc1"
  IC50 [nM]: 257

// below: IC50 requested for another molecule
Using the record for O=S(=O)(Nc1ccc(F)c(C#Cc2cnc3[nH]nc(-c4ccncc4)c3c2)c1F)c1cccnc1 , report its IC50.
75
